meta.source: patent US5138069A

- assayedSystem: AII receptor
- assayExplanation: Angiotensin II receptor binding (displacement of 3H-AII)
- assaySetup: read-out: Angiotensin II Receptor Binding IC50; Table 25; tested as sodium salt; rat adrenal cortical microsomes, 2 nM 3H-AII, 1 hour, room temperature
# reported IC50; entries follow

- molSmiles: "CCCCc1nc(Cl)c(CNS(C)(=O)=O)n1Cc1ccc(C(=O)c2ccccc2C(=O)O)cc1"
  unitOfMeasure: "nM"
  IC50: 200
- molSmiles: "CCCCc1nc(Cl)c(CNC(=O)OC(C)C)n1Cc1ccc(-c2ccccc2C(=O)O)cc1"
  unitOfMeasure: "nM"
  IC50: 250
- molSmiles: "CCCCc1nc(Cl)c(CNC(=O)Oc2ccccc2)n1Cc1ccc(-c2ccccc2C(=O)O)cc1"
  unitOfMeasure: "nM"
  IC50: 450
- molSmiles: "CCCCc1nc(CNC(=O)OC)c(Cl)n1Cc1ccc(-c2ccccc2C(=O)O)cc1"
  unitOfMeasure: "nM"
  IC50: 120
